- Assay method text: Inhibition of P38 kinase
- Parameters: species or system Homo sapiens
Readout: IC50 (µM)
Numbers only, in µM.

Please review the entries below; each comes with its answer.
C[S+]([O-])c1ccc(-c2nc(-c3ccc4ccccc4c3)c(-c3ccncc3)[nH]2)cc1 (stereo not given)	0.3
Cc1ccc2cc(-c3nc(-c4ccc([S+](C)[O-])cc4)[nH]c3-c3ccncc3)ccc2c1 (stereo not given)	0.741
C[S+]([O-])c1ccc(-c2nc(-c3ccc4cc(-c5ccccc5)ccc4c3)c(-c3ccncc3)[nH]2)cc1 (stereo not given)	16.5
COc1ccc2cc(-c3nc(-c4ccc([S+](C)[O-])cc4)[nH]c3-c3ccncc3)ccc2c1 (stereo not given)	50
COc1ccc2cc(-c3c(-c4ccncc4)nc(-c4ccc([S+](C)[O-])cc4)n3C)ccc2c1 (stereo not given)	16

Need IC50 for each of these compounds.
1. C[S+]([O-])c1ccc(-c2nc(-c3ccc4cc(Br)ccc4c3)c(-c3ccncc3)[nH]2)cc1 (stereo not given)
2. COc1ccc2cc(-c3nc(-c4ccc([S+](C)[O-])cc4)n(C)c3-c3ccncc3)ccc2c1 (stereo not given)

# output
1. 4.57
2. 16

---

So I've got a bunch of molecules here, and I need their pIC50 values.
- Experimental system: Angiopoietin-1 receptor (Homo sapiens, UniProt Q02763)
- Sequence (Q02763 whole entry): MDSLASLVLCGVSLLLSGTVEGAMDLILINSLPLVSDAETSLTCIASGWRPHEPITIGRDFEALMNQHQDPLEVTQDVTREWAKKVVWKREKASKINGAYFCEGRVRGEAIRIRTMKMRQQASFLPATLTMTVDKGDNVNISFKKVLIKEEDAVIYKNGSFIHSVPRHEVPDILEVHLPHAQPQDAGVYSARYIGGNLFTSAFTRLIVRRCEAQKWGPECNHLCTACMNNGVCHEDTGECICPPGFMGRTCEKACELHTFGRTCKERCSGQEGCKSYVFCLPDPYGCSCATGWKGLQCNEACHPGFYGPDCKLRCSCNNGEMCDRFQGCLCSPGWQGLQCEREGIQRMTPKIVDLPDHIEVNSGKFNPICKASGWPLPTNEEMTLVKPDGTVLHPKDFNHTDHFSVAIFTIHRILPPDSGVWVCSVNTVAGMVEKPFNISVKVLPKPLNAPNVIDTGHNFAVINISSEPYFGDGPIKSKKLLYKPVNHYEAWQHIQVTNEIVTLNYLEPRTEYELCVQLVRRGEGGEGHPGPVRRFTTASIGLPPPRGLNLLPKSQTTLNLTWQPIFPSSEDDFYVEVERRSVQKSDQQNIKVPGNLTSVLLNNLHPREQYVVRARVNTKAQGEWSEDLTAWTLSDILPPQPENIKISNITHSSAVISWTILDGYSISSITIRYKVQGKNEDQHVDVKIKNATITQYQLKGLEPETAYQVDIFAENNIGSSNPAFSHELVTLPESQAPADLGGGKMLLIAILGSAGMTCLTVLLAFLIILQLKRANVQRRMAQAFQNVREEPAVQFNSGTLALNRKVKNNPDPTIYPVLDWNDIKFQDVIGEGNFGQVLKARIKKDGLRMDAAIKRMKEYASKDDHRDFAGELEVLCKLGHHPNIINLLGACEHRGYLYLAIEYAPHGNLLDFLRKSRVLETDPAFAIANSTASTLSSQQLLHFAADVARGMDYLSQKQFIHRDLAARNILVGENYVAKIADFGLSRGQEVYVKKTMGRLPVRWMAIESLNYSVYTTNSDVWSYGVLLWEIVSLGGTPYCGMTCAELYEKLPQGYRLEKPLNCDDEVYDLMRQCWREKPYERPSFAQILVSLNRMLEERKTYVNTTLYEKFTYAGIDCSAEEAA
- Assay method text: Inhibition of Tie2 kinase by autophosphorylation assay
Give bare numbers, as −log10 of the molar value.

CCn1c(-c2ccc([S+](C)[O-])cc2)nc(-c2ccncc2)c1-c1ccc2cc(OC)ccc2c1 (stereo not given)	5.27

Need pIC50 for each of these molecules.
1. C[S+]([O-])c1ccc(-c2nc(-c3ccc4cc(-c5ccccc5)ccc4c3)c(-c3ccncc3)[nH]2)cc1 (stereo not given)
2. COc1ccc2cc(-c3c(-c4ccncc4)nc(-c4ccc([S+](C)[O-])cc4)n3CC(C)C)ccc2c1 (stereo not given)
3. C[S+]([O-])c1ccc(-c2nc(-c3ccc4ccccc4c3)c(-c3ccncc3)[nH]2)cc1 (stereo not given)
4. COc1ccc2cc(-c3nc(-c4ccc([S+](C)[O-])cc4)[nH]c3-c3ccncc3)ccc2c1 (stereo not given)
5. Cc1ccc2cc(-c3nc(-c4ccc([S+](C)[O-])cc4)[nH]c3-c3ccncc3)ccc2c1 (stereo not given)
6. COc1ccc2cc(-c3c(-c4ccncc4)nc(-c4ccc([S+](C)[O-])cc4)n3C)ccc2c1 (stereo not given)
7. CCCn1c(-c2ccc([S+](C)[O-])cc2)nc(-c2ccncc2)c1-c1ccc2cc(OC)ccc2c1 (stereo not given)
8. COc1ccc2cc(-c3nc(-c4ccc([S+](C)[O-])cc4)n(C)c3-c3ccncc3)ccc2c1 (stereo not given)

# output
5.26
5.41
6.52
6.60
6.66
7.22
6.36
4.70

# input Return pIC50 measured with Angiopoietin-1 receptor (Homo sapiens, UniProt Q02763) given this molecule: C[S+]([O-])c1ccc(-c2nc(-c3ccc4cc(Br)ccc4c3)c(-c3ccncc3)[nH]2)cc1 (stereo not given)
# output 6.47

---

- Assay method text: Inhibition of P38 kinase
- Design: species or system Homo sapiens
So I've got a bunch of compounds here, and I need their IC50 values.

Need IC50 for each of these compounds.
1. CCCn1c(-c2ccc([S+](C)[O-])cc2)nc(-c2ccncc2)c1-c1ccc2cc(OC)ccc2c1 (stereo not drawn)
2. CCn1c(-c2ccc([S+](C)[O-])cc2)nc(-c2ccncc2)c1-c1ccc2cc(OC)ccc2c1 (stereo not drawn)
3. COc1ccc2cc(-c3c(-c4ccncc4)nc(-c4ccc([S+](C)[O-])cc4)n3CC(C)C)ccc2c1 (stereo not drawn)

# output
["> 16 µM", "> 16 µM", "> 16 µM"]
